system.name: CLK3 kinase (Homo sapiens)
assay.info: CLK3 kinase activity assay (Z-lyte FRET)
condition.description: Z-lyte Ser/Thr 18 peptide, 156 μM ATP, 1 h at room temperature
measured.quantity: EC50 (nM)

Some solved cases for reference:
>>> quantitative_result("CC(C)Oc1cncc(C(=O)Nc2c[nH]nc2C(=O)Nc2ccc(OC3CCN(C)CC3)nc2)c1")
1780
>>> quantitative_result("O=C(Nc1cncc(-c2ccc3[nH]nc(-c4nc5c(-c6ccc(Cl)s6)cncc5[nH]4)c3n2)c1)C1CCC1")
145

[1] CN(C)Cc1cncc(-c2ccc3[nH]nc(-c4cc5c(-c6cccc(F)c6)cncc5[nH]4)c3c2)c1
[2] CC(C)Nc1cncc(-c2ccc3[nH]nc(-c4nc5c(-c6ccoc6)nccc5[nH]4)c3c2)c1
# compare EC50 for 1 vs 2 ; return the one with the smaller value Lab log: write the label of the selected item as the result.
1

====

system.name: UniProtKB P49760
assay.info: CLK2 kinase activity assay (Z-lyte FRET)
condition.description: Z-lyte Ser/Thr 6 peptide, 60 μM ATP, 1 h at room temperature
pEC50: −log10 of the molar value.
measured.quantity: pEC50

Some solved entries appear below for comparison.
>>> quantitative_result("O=C(Nc1cncc(-c2ccc3[nH]nc(-c4cc5c(-c6ccncc6)nccc5[nH]4)c3c2)c1)C1CCCC1")
8.30
>>> quantitative_result("CC(C)Nc1cncc(-c2ccc3[nH]nc(-c4nc5c(-c6cccnc6)ccnc5[nH]4)c3n2)c1")
9.00
>>> quantitative_result("O=C(Nc1c[nH]nc1C(=O)Nc1cncc(-c2cccc(F)c2)c1)c1cncc(F)c1")
7.14
>>> quantitative_result("O=C(Nc1cncc(-c2ccc3[nH]nc(-c4nc5c(-c6cccs6)cccc5[nH]4)c3n2)c1)C1CC1")
8.00
>>> quantitative_result("CS(=O)(=O)NCc1cc(F)cc(-c2nccc3[nH]c(-c4n[nH]c5ccc(-c6cncnc6)cc45)nc23)c1")
7.80
>>> quantitative_result("O=C(Nc1cncc(-c2ccc3[nH]nc(-c4nc5c(-c6ccccc6F)cccc5[nH]4)c3n2)c1)C(F)(F)F")
8.30

[A] c1cncc(-c2cc3c(-c4cc5cnccc5[nH]4)n[nH]c3cn2)c1
[B] Cc1ncc(-c2ccc3cnc(NC(=O)C4(F)CC4)cc3c2)n1C
Just tell me: smaller pEC50 value, A or B ? Please indicate the selected item by its label.
B

====

system.name: CLK2 kinase (Homo sapiens)
Sequence (P49760 whole entry): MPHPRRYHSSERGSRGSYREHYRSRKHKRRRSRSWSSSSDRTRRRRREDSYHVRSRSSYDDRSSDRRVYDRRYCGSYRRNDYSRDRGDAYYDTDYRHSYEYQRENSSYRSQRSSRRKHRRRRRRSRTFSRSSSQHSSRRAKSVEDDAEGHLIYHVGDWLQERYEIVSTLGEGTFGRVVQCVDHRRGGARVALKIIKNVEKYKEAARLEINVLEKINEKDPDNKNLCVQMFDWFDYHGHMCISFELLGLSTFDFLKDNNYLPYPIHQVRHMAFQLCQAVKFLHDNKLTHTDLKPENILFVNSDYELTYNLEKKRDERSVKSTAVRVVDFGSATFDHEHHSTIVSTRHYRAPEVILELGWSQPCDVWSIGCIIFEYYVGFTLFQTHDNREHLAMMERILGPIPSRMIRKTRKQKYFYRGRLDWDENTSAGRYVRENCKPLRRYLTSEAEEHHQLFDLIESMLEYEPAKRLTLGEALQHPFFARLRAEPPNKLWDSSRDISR
assay.info: CLK2 kinase activity assay (Z-lyte FRET);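 note: FRET read-out as coumarin to fluorescein emission ratio, unphosphorylated peptide as 0% and phosphorylated peptide as 100% controls, duplicate reactions, non-linear regression fit of dose-response curves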
condition.description: Z-lyte Ser/Thr 6 peptide, 60 μM ATP, 1 h at room temperature
measured.quantity: EC50 (nM)

Examples with answers:
>>> quantitative_result("c1cncc(-c2ccnc3[nH]c(-c4n[nH]c5ncc(-c6cncc(CN7CCCCC7)c6)cc45)cc23)c1")
2
>>> quantitative_result("CN1CCC(Oc2ncc(NC(=O)c3n[nH]c4cc(F)c(-c5cnn(C)c5)cc34)cc2F)CC1")
1

[1] Cc1ccc(NC(=O)c2n[nH]c3ccc(-c4cncc(CN5CCCCC5)c4)cc23)cn1
[2] CN(C)CCOc1cncc(-c2ccc3[nH]nc(-c4nc5c(-c6cccs6)cccc5[nH]4)c3n2)c1
API: POST /compare with 1 and 2 ; response names the item with higher EC50. Please respond with the label that marks your chosen entry.
2
(2: 2 nM, 1: 1 nM)

====

system.name: CLK3 kinase (Homo sapiens, UniProt P49761)
Sequence (P49761 whole entry): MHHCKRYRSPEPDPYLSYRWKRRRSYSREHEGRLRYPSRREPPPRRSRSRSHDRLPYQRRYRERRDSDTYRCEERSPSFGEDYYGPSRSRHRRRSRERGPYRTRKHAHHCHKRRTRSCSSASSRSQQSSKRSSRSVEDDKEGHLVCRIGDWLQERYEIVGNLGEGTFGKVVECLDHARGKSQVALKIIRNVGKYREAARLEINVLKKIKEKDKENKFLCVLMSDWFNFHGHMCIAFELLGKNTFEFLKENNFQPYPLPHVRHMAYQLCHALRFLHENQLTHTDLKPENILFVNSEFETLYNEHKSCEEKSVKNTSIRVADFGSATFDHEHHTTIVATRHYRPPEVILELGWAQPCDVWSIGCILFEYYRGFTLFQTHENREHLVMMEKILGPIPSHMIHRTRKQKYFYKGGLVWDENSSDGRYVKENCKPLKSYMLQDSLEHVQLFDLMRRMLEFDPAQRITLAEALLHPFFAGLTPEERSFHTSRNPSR
assay.info: CLK3 kinase activity assay (Z-lyte FRET);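 note: kinase activity read as coumarin/fluorescein emission ratio by FRET, unphosphorylated peptide as 0% and phosphorylated peptide as 100% control, values from non-linear regression of dose-response curves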
condition.description: Z-lyte Ser/Thr 18 peptide, 156 μM ATP, 1 h at room temperature
measured.quantity: EC50 (nM)

As a guide, the following entries are already answered.
>>> quantitative_result("Oc1cncc(-c2ccc3[nH]nc(-c4nc5c(-c6cccc(F)c6)ccnc5[nH]4)c3n2)c1")
113
>>> quantitative_result("CN(C)Cc1cncc(-c2cc3c(-c4cc5c(-c6ccncc6)ccnc5[nH]4)n[nH]c3cn2)c1")
180
>>> quantitative_result("O=C(Nc1cncc(-c2cnc3[nH]nc(-c4cc5c(-c6cccnc6)cccc5[nH]4)c3c2)c1)C1CCC1")
151
>>> quantitative_result("Cc1ncc(-c2cnc3[nH]nc(-c4nc5c(-c6cccc(F)c6)nccc5[nH]4)c3c2)n1C")
34
>>> quantitative_result("CN1CCCN(c2cc(C(=O)Nc3cc4cc(-c5cnn(C)c5)ccc4cn3)ccn2)CC1")
28

[a] CC(C)C(=O)Nc1cncc(-c2cnc3[nH]nc(-c4cc5c(N6CCN(C)CC6)nccc5[nH]4)c3c2)c1
[b] CCCCC(=O)Nc1cncc(-c2cc3c(-c4cc5cnccc5[nH]4)n[nH]c3cn2)c1
[c] CC(C)(C)C(=O)Nc1cncc(-c2ccc3[nH]nc(-c4cc5c(-c6ccncc6)ccnc5[nH]4)c3c2)c1
[d] CC(C)Nc1cncc(-c2cnc3[nH]nc(-c4cc5c(N6CCCCC6)nccc5[nH]4)c3c2)c1
Sequence the entries by EC50, beginning with the highest number. Output the labels ranked as instructed.
d, a, c, b

[P] CCC(=O)Nc1cncc(-c2ccc3[nH]nc(-c4cc5c(-c6cc(F)cc(CNS(C)(=O)=O)c6)cncc5[nH]4)c3c2)c1
[Q] CCC(=O)Nc1cncc(-c2ccc3[nH]nc(-c4nc5c(-c6cccc(F)c6)cncc5[nH]4)c3c2)c1
Select one. Lower EC50: P or Q Provide the label of your selected option as the answer.
Q

[a] Fc1cccc(-c2cncc3[nH]c(-c4n[nH]c5ncc(-c6cncc(CN7CCCCC7)c6)cc45)cc23)c1
[b] CCCC(=O)Nc1cncc(-c2ccc3[nH]nc(-c4nc5c(-c6ccsc6)ccnc5[nH]4)c3c2)c1
When a and b are compared, which has the higher number for EC50? Indicate which entry you chose by stating its label.
b
(b: 9840 nM, a: 295 nM)

[a] CN1CCN(c2nccc3[nH]c(-c4n[nH]c5cnc(-c6cncc(N)c6)cc45)cc23)CC1
[b] COc1ccc(NC(=O)c2n[nH]c3ccc(-c4cncc(CO)c4)cc23)cn1
Dear colleague, could you let me know whether a or b has the lower recorded EC50? Thanks. Field: selected label. Fill in the label of the entry you choose.
b

[a] Nc1cncc(-c2cnc3[nH]nc(-c4nc5c(-c6ccccc6F)ccnc5[nH]4)c3c2)c1
[b] c1ccc2[nH]c(-c3n[nH]c4ncc(-c5cncc(CN6CCCC6)c5)cc34)cc2c1
Form: Entry with minimum EC50 (choose one): a / b Kindly give the label for the entry you pick.
a

[a] FC1(F)CCN(Cc2cncc(-c3ccc4[nH]nc(-c5cc6cnccc6[nH]5)c4n3)c2)C1
[b] O=C(Nc1cncc(-c2cnc3[nH]nc(-c4nc5c(-c6cccc(F)c6)cncc5[nH]4)c3c2)c1)N1CCOCC1
[c] CCNCc1cncc(-c2cnc3[nH]nc(-c4cc5c(-c6cccnc6)ccnc5[nH]4)c3c2)c1
[d] c1cncc(-c2cc3c(-c4cc5cccnc5[nH]4)n[nH]c3cn2)c1
[e] O=C(Nc1ccc(CN2CCCC2)cc1)c1n[nH]c2ccc(-c3cnn(C4CC4)c3)cc12
# ascending order, key=EC50 The labels, placed in the requested order, form the answer.
a, b, c, e, d
(a: 23 nM, b: 42 nM, c: 74 nM, e: 133 nM, d: 5490 nM)

[I] O=C(Nc1ccc(N2CCNCC2)nc1)c1n[nH]cc1/C=C/c1cccnc1
[II] CCNCc1cncc(-c2cnc3[nH]nc(-c4cc5c(-c6cc(F)cc(CNS(C)(=O)=O)c6)nccc5[nH]4)c3c2)c1
// returns I or II , whichever has the lower EC50 I would appreciate it if you answered with the label of your choice.
II

[I] CC(C)Nc1cncc(-c2cnc3[nH]nc(-c4nc5c(-c6cccc(F)c6)cncc5[nH]4)c3c2)c1
[II] O=C(NCc1cc(F)cc(F)c1)c1n[nH]c2ccc(-c3cncc(CN4CCCCC4)c3)cc12
Field: entry with larger EC50 (options I / II ). Indicate which entry you chose by stating its label.
II
(II: 1670 nM, I: 160 nM)
